Target: CYP 3A4 (Homo sapiens)
Sequence (P08684 whole entry): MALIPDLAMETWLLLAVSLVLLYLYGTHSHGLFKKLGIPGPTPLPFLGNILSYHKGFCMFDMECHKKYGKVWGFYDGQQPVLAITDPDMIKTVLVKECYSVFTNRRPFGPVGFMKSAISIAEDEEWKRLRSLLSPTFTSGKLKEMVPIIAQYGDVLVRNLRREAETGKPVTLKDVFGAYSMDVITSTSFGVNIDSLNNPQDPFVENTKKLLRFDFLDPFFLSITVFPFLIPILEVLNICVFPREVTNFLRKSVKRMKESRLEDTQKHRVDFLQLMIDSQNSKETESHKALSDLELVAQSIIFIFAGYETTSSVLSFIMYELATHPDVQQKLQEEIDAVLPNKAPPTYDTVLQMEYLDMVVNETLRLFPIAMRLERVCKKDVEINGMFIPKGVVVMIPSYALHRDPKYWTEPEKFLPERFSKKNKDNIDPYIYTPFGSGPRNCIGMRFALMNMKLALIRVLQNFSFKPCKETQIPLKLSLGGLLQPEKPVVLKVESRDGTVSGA
Reported Endpoint: IC50

{"columns": ["Compound Structure", "Reported"],
 "data": [
  ["CN(C)C(=O)c1ccc(Cn2cnccc2=O)cc1", "> 50 µM"]
]}
